- Assayed target: MycN (Homo sapiens)
- Construct: endogenous in cells; host or cells: SK-N-BE(2)
- Sequence (P04198 whole entry): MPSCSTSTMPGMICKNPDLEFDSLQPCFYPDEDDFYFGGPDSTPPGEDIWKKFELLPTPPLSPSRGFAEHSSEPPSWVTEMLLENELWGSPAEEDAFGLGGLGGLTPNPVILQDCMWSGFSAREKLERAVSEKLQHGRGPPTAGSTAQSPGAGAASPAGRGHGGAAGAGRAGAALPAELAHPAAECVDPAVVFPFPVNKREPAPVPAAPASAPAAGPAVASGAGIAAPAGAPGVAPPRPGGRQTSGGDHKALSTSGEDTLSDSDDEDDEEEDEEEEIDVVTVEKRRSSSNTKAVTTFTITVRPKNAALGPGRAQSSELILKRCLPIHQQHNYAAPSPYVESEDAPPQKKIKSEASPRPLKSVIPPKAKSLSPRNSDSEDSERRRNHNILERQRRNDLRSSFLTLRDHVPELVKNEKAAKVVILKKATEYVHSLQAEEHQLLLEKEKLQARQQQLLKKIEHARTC
- Test: Degradation of MycN protein in SK-N-BE(2) cells, JESS/Western blot of lysates
- Type: cell-based
- Measurement context: SKNBE2, 24 h, SKNBE2 cells, 24 h, 6 μM; read-out: % Degradation of MycN (SKNBE2) 24 h, 6 μM
- Procedure: For L363 cells (suspension), 1E6 cells were plated into each well of a 6 well plate. For SK-N-BE(2) cells (adherent), 5E5 cells were plated into each well of a 6 well dish. […] Once an appropriate lysate concentration and antibody concentration was determined, samples were screened in the JESS technology (Protein Simple, San Jose, CA—https://www.proteinsimple.com/jess.html). […]
Dmax at 6 µM: recorded values
Endpoint label: Dmax at 6 µM

[
  {
    "Compound": "CN1CC2(CCN(c3nccc(Nc4cc(C5CCCC5)[nH]n4)n3)CC2)C1 [Compound 86]",
    "Result value": "80 to 100%"
  },
  {
    "Compound": "c1cc(Nc2cc(C3CCCC3)[nH]n2)nc(N2CCC(C3CNC3)C2)n1 (stereo not drawn) [Compound 28]",
    "Result value": "80 to 100%"
  },
  {
    "Compound": "CN1CC(C2CN(c3nccc(Nc4cc(C5CC5)[nH]n4)n3)C2)C1 [Compound 46]",
    "Result value": "< 20%"
  },
  {
    "Compound": "c1cc(Nc2cc(C3CC3)[nH]n2)nc(N2CC3(CNC3)C2)n1 [Compound 6]",
    "Result value": "< 20%"
  },
  {
    "Compound": "CNCCCN(C)c1nccc(Nc2cc(C3CC3)[nH]n2)n1 [Compound 101]",
    "Result value": "20 to 49%"
  },
  {
    "Compound": "c1cc(Nc2cc(C3CC3)[nH]n2)nc(N2CCC3(CCNC3)C2)n1 (stereo not drawn) [Compound 42]",
    "Result value": "80 to 100%"
  },
  {
    "Compound": "c1cc(Nc2cc(C3CC3)[nH]n2)nc(N2C[C@H]3CNC[C@@H]3C2)n1 (racemic) [Compound 50]",
    "Result value": "80 to 100%"
  },
  {
    "Compound": "CNCC12CC(C1)N(c1nccc(Nc3cc(C4CCCC4)ncn3)n1)C2 [Compound 112]",
    "Result value": "80 to 100%"
  },
  {
    "Compound": "CN(C)CC1CCN(c2nccc(Nc3cc(C4CC4)[nH]n3)n2)CC1 [Compound 5]",
    "Result value": "20 to 49%"
  }
]
